Target: L-lactate dehydrogenase (Plasmodium falciparum (isolate CDC / Honduras)) (UniProt Q27743)
Sequence (Q27743 whole entry, looked up): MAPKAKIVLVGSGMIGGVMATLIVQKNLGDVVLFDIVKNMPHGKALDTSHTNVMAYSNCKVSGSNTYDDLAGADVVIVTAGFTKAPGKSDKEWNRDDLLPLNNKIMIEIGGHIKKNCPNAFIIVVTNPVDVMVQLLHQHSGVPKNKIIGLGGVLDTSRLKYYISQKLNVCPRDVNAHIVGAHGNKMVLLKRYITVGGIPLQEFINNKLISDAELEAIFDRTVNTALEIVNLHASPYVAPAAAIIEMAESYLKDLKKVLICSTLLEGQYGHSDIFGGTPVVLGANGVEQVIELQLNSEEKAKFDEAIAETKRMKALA
Assay: PfLDH activity inhibition – cell lysate, 3D7 strain, counter-screen for P. falciparum growth inhibition project (AID 2304);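 also: 0% = vehicle and 100% = reference inhibitor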
Conditions: P. falciparum 3D7 crude extract, LDH APAD/NBT absorbance; at 2 µM; stronger effect = higher value
Reported property: inhibition (%)
Enter your answer as a number in %; do not include the unit.

Examples with their reported inhibition follow.
| Molecule | Output unit | Measured value |
| --- | --- | --- |
| CCCCNCc1ccc(OCc2cccc(COc3ccc(CNCCCC)cc3)c2)cc1 | % | 5 |
| Cc1cc(C)c(NC(=O)NC2CCN(CCCCCNC(=O)/C=C/c3ccc(Cl)c(Cl)c3)C2)c(C)c1 (stereo unspecified) | % | 1 |
| CC(=O)Nc1ccc(C(=O)Nc2cccc(-c3ccc(-c4nc5ccc(C(F)(F)F)cc5[nH]4)cc3)c2)cn1 | % | -3 |

Which inhibition reading was recorded for the molecule Cc1noc(-c2ccccc2)c1CN1CCCC2(CC(C(=O)NCc3cccc(F)c3F)=NO2)C1 (stereo unspecified) ?
-1

Request the reported inhibition associated with CC(C)(C)c1ccc(CNC(=O)c2cc(CNC3CCC(N)CC3)ccc2O)cc1 (stereo unspecified)
0

What measured inhibition goes with `Nc1nc(N)c2c(Oc3cccnc3)cccc2n1` ?
6

* * *

Test: inhibition of 3D7 malaria parasite growth – strain 3D7 (AID 2306);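 also: 0% = DMSO wells and 100% = chloroquine plus artemisinin control wells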
Settings: P. falciparum 3D7 erythrocytic growth, LDH absorbance, 72 h; at 2 µM; stronger effect = higher value
Reported growth inhibition values are given for each entry in this list.
Write the value in % as a bare number.

Record excerpt, results attached:
| Molecule | Measured value |
| --- | --- |
| Cc1c(Cc2ccccc2Br)cnc2nc(N)nc(N)c12 | 88 |
| CCCc1cc(OC)c(C[C@@H]2c3cc(O)c(Cl)cc3CCN2C)cc1OC | 98 |

Requested read-out: growth inhibition. Entry: `Cn1nc(-c2cccc(CNCCc3cccs3)c2)c2cnc(NC3CCCC3)nc21`
97

Reported growth inhibition for `Cc1cc2nc(-c3ccc(/C=C/C(=O)NCc4ccc(Cl)c(Cl)c4)cc3)[nH]c2cc1C` : what is it?
98

* * *

Assay: antimalarial activity against Dd2 strain (AID 2302);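 also: 0% = DMSO untreated growth and 100% = chloroquine plus artemisinin killed control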
Conditions: P. falciparum Dd2 in RBCs, LDH growth readout, 72 h; at 2 µM
Calls of active or inactive are those of the source.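 Rule for the calls: active = growth inhibition above 50% at the single 2 µM test dose, taken to imply half-maximal potency below 2 µM; inactive = the rest.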
Please answer using one outcome listed in 1 (yes) = active, 0 (no) = inactive

| Compound | Label value |
| --- | --- |
| COc1ccc(NC(=O)[C@H](CC(C)C)Nc2cc(C)nc(NCc3ccccc3C)n2)cc1 | 1 (yes) |
| COc1ccc(C(=O)NC(c2ccc(Cl)cc2Cl)c2cc(Cl)c3cccnc3c2O)cc1 (configuration not stated) | 0 (no) |
| COc1cccc(NC(=O)Nc2cc(-c3ccc4[nH]ncc4c3)cc3c2CNC3=O)c1 | 1 (yes) |
| CCCc1cc(C(C)=O)ccc1OCCCON1C(N)=NC(N)=NC1(C)C | 1 (yes) |
| Cc1cc(CNCCCCCCCNCc2ccc(Cl)cc2)ccc1O | 0 (no) |

Test call, this compound: `COc1ccc(NS(=O)(=O)c2ccccc2Br)cc1N1CCN(C)CC1`
0 (no)

Dear colleague, could you share the recorded outcome for `O=C(Nc1ccc([N+](=O)[O-])cc1Br)c1cc2ccccc2nc1Cl` when you have a moment?
1 (yes)

Please let me know the test result on file for COc1ccccc1/C=C/C(=O)NC1CCC(CCN2CCc3ccc(-c4cc(C)no4)cc3CC2)CC1 (configuration not stated) .
0 (no)

Short answer needed: outcome of this test for `CC1(C)N=C(N)N=C(N)N1OCc1cc(Cl)cc2c1OCOC2` ?
1 (yes)

# fetch the recorded call for `C[C@@H]1CN(CCCn2c3ccccc3c3ccc(C(=O)CCCN(C)C)cc32)C[C@H](C)N1` here
0 (no)

Please state the recorded outcome for this compound: CCN1CCC(N(Cc2ccc(-c3ccc(C(F)(F)F)cc3)cc2)C(=O)Cn2c(CCc3cccc(F)c3F)cc(=O)c3ccccc32)C1 (configuration not stated)
1 (yes)

* * *

Experiment: inhibition of 3D7 malaria parasite growth – strain 3D7 (AID 2306);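 also: 0% = DMSO wells and 100% = chloroquine plus artemisinin control wells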
Conditions: P. falciparum 3D7 erythrocytic growth, LDH absorbance, 72 h; at 2 µM; stronger effect = higher value
Quick reference: growth inhibition of the listed items.
Enter your answer as a number in %; do not include the unit.

| Compound | growth inhibition, % |
| --- | --- |
| COc1ccc(S(=O)(=O)N(CC(=O)NN=C(C)c2cccs2)c2cc(C)cc(C)c2)cc1OC | 97 |
| COc1cc2c(cc1C(F)(F)F)N(C(=O)Nc1cccc(-c3ccc(CN(C)C)cc3)c1)CC2 | 101 |
| Cc1cccc(CC2CC(=O)N(c3ccc([N+](=O)[O-])cc3)C2=O)c1 (centres undefined) | 95 |
| Cn1nc(-c2cccc(CN[C@@H]3CCc4ccc(O)cc43)c2)c2cnc(NCCCN3CCCC3)nc21 | 101 |
| CCOC(=O)c1[nH]c(-c2cccnc2)nc1NC(=S)NCc1ccccc1 | 101 |

Look up growth inhibition: `O=C(Nc1nc(-c2cc(F)ccc2F)cs1)c1cncc(Br)c1`
85

Fill in the blank: the reported growth inhibition of `Nc1nc(N)c2c(ccc3c2ccn3CCCCO)n1` is ____.
93

What value of growth inhibition has been recorded for this entry: `Cc1cc(NCCCCCCCCNc2cc(C)nc3ccccc23)c2ccccc2n1`
101

What measured growth inhibition goes with `CC(C)(C)c1cc(C(=O)N2CCN(c3nccnc3C#N)CC2)n(Cc2ccccc2)n1` ?
100

Fill in: growth inhibition of O=C(NC1CC1)c1ccc2cc(C(=O)N3Cc4ccccc4C(c4ccccc4)C3)ccc2c1 (centres undefined) is ___
97

Entry `C=CCn1c(Cc2ccccc2)nnc1Sc1ccc(C#N)c([N+](=O)[O-])c1` : reported growth inhibition = ?
86

// lookup growth inhibition for `COc1ccc2c(NN=Cc3ccccn3)ccnc2c1`
102

Fill blank: measured growth inhibition of the compound `COc1cc2nc(Nc3ccc4c(c3)OCCO4)nc(N)c2cc1OC` is ____.
101

What value of growth inhibition has been recorded for this entry: `NC1=NC2(CCCCC2)N(OCCCCCCN2C(=O)c3ccccc3C2=O)C(N)=N1`
98

Consider the compound `O=[N+]([O-])c1ccc(-c2ccc(C=NNc3nc(Nc4ccccc4)nc(Nc4ccccc4)n3)o2)cc1` and give its measured growth inhibition.
91

* * *

Entries and their inhibition
Molecular target: L-lactate dehydrogenase (Plasmodium falciparum (isolate CDC / Honduras)) (UniProt Q27743)
Experiment: PfLDH activity inhibition – cell lysate, 3D7 strain, counter-screen for P. falciparum growth inhibition project (AID 2304);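 also: 0% = vehicle and 100% = reference inhibitor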
Details: P. falciparum 3D7 crude extract, LDH APAD/NBT absorbance; at 2 µM; stronger effect = higher value
Respond numerically; units are % and should not be typed.

Here's what some known entries look like.
| Compound | inhibition (%) |
| --- | --- |
| CC(C)CC(NC(=O)c1cccc(OCCN2CCOCC2)c1)C(=O)NC(/C=N/NC(=O)c1ccccc1)CCc1ccccc1 (stereo not given) | -9 |
| COc1ccc2c(c1)Nc1ccc(Cl)cc1C2N (stereo not given) | 3 |
| O=C(Nc1ccc(CCNCc2ccccc2)cc1)Nc1ccc(OC(F)(F)F)cc1 | -2 |
| O=C(Nc1ccc2c(c1)CCC2)N[C@H]1CCN(CCCCCNC(=O)[C@@H]2C[C@H]2c2ccc(Cl)c(Cl)c2)C1 | 2 |
| Cc1ccc(CNC(=O)[C@H](CC(C)C)Nc2cc(C)nc(Nc3ccccc3)n2)cc1 | -1 |
| O=C(/C=C/c1ccc(Cl)cc1)NCCCCCN1CCCN(C(=O)Nc2ccc(F)c(Cl)c2)CC1 | 1 |

What measured inhibition goes with `Oc1ccc(CCCc2cc(Oc3c(I)cc(CCc4ncc[nH]4)cc3I)ccc2O)cc1` ?
-9

Field request: inhibition | item: `CC(=O)Nc1nc(C(=O)Nc2ccc(-c3ccc(-c4nc5ccccc5[nH]4)cc3)cc2)cs1`
-5

Please look up its inhibition: `CCNCc1cccc(-c2ccc3ccnc(N)c3c2)c1`
0

Would you mind telling me what inhibition value was observed for O=C(Nc1ccc2c(c1)CCN2C1CCN(Cc2cc(F)cc(F)c2F)C1)c1ccco1 (stereo not given) ?
1

# lookup: inhibition of COc1cc(NC(=O)N2CCOC(CCN3CCC(c4ccccc4)CC3)(c3ccc(Cl)c(Cl)c3)C2)cc(OC)c1OC (stereo not given)
-2

# inhibition lookup, item `Cc1cc2c(cc1C(F)(F)F)N(C(=O)Nc1cnc(OCCN(C)C)c(C(F)(F)F)c1)CC2`
-2

* * *

Biological target: L-lactate dehydrogenase (Plasmodium falciparum (isolate CDC / Honduras))
Experiment: PfLDH activity inhibition – cell lysate, 3D7 strain, counter-screen for P. falciparum growth inhibition project (AID 2304);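 also: 0% = vehicle and 100% = reference inhibitor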
Settings: P. falciparum 3D7 crude extract, LDH APAD/NBT absorbance; at 2 µM; stronger effect = higher value
Reported property: inhibition (%)
Numbers only here, please. The scale is %.

Answered examples (4):
| Compound | Output unit | Measured value |
| --- | --- | --- |
| O=C(C=Cc1ccc(-c2nc3ccccc3[nH]2)cc1)NC1CCN(Cc2ccccc2)CC1 | % | 3 |
| c1ccc(C2CCN(Cc3ccc(-c4c[nH]c5nc(NC6CCCC6)ncc45)cc3)CC2)cc1 | % | -1 |
| CC(=O)c1ccc(NC(=O)Nc2ccc3nccc(N4CCN(C)CC4)c3c2)cc1 | % | -1 |
| CCCCCCCN1CCC(CC(=O)Nc2ccnc3ccc(OC)cc23)CC1 | % | -2 |

Param item = `COc1cc2c(cc1C(F)(F)F)N(C(=O)Nc1cc(Br)cc(-c3cccnc3)c1)CC2` ; retrieve measured inhibition.
-1

I would be grateful if you could share the reported inhibition for Cc1cc(C)cc(OCC(O)CN(Cc2cc(Cl)cc(Cl)c2)C(=O)Nc2ccc(Cl)cc2)c1 (centres undefined) .
-2

Given the entry CC(Cc1ccc(NS(=O)(=O)c2ccc(CC(C)NCCc3cccc(Cl)c3)cc2)cc1)NCCc1cccc(Cl)c1 (centres undefined) , report its measured inhibition.
4

Requested read-out: inhibition. Entry: `CCCCCN1CCCN(Cc2cccc(NC(=O)c3ccc(Cl)c(Cl)c3)c2)CC1`
0

// lookup inhibition for `CCN1CCc2nc3ccccc3c(C(=O)Nc3ccc(C#N)cc3)c2C1`
-1

Can you share its inhibition? I mean this compound: Cc1ccc(-c2nc3ccc(C(=O)NC4CCC(N5CCCc6ccc(C#N)cc6C5)CC4)cc3[nH]2)cc1 (centres undefined)
-2

I have this compound here, Cc1cc(NC(=O)NCCN2CCC(NS(=O)(=O)c3ccc(Br)cc3)C2)c2ccccc2n1 (centres undefined) , and I need its recorded inhibition.
0

For `COc1c(C2CCN(CCCCNC(=O)c3ccc(-c4ccc(C#N)cc4)c(O)c3)CC2)ccc2c1CCCC2` , what is its reported inhibition?
-2

FYI, the data here is from PubChem BioAssay.
